Where these numbers come from: paper PMC9820118

Entries and their log PTLC
# Protocol: Experimental lipophilicity by RP-TLC
# Test Conditions: from RM0 by calibration curve with eight reference compounds

Molecule	log PTLC
C=C(C)C1CCC2(COC(=O)C=CC(=O)O)CCC3(C)C(CCC4C5(C)CCC(O)C(C)(C)C5CCC43C)C12 (stereo not shown)	7.150
C=C(C)[C@@H]1CC[C@]2(COC(=O)CCC(=O)O)CC[C@]3(C)C(CCC4[C@@]5(C)CC[C@H](O)C(C)(C)C5CC[C@]43C)C12 (stereo partly shown)	8.191
C#CCNC(=O)c1ccccc1C(=O)OC[C@]12CC[C@@H](C(=C)C)C1C1CCC3[C@@]4(C)CC[C@H](O)C(C)(C)C4CC[C@@]3(C)[C@]1(C)CC2 (stereo partly shown)	8.332
C=C(C)[C@@H]1CC[C@]2(COC(=O)c3ccccc3C(=O)O)CC[C@]3(C)C(CCC4[C@@]5(C)CC[C@H](O)C(C)(C)C5CC[C@]43C)C12 (stereo partly shown)	8.283
